species: Rattus norvegicus; test: Open TG-GATES - Regimen: Single; format: toxicity, organism-based, Sprague-Dawley; parameters: regimen Single, gender Male, age 6 weeks; conditions: in vivo, po, 0 mg/kg, 3 h, tissue Plasma, route gavage, dose level Control
For each of the compounds below, state its TBIL.
Give bare numbers, in mg/dL.

Past entries and their recorded results:
[
  {
    "compound": "CCCc1cc(=O)[nH]c(=S)[nH]1",
    "assayEndpoint": "TBIL",
    "valueReported": 0.3
  },
  {
    "compound": "CN(C)CCC(c1ccc(Cl)cc1)c1ccccn1 (configuration not stated)",
    "assayEndpoint": "TBIL",
    "valueReported": 0.054
  },
  {
    "compound": "CNC(=C[N+](=O)[O-])NCCSCc1ccc(CN(C)C)o1",
    "assayEndpoint": "TBIL",
    "valueReported": 0.1
  },
  {
    "compound": "Brc1ccccc1",
    "assayEndpoint": "TBIL",
    "valueReported": 0.058
  },
  {
    "compound": "Nc1c2c(nc3ccccc13)CCCC2",
    "assayEndpoint": "TBIL",
    "valueReported": 0.018
  },
  {
    "compound": "CS(=O)(=O)O.Cc1ccc(NC(=O)c2ccc(CN3CCN(C)CC3)cc2)cc1Nc1nccc(-c2cccnc2)n1 [IMATINIB MESYLATE]",
    "assayEndpoint": "TBIL",
    "valueReported": 0.012
  },
  {
    "compound": "CC(C)NNC(=O)c1ccncc1",
    "assayEndpoint": "TBIL",
    "valueReported": 0.022
  },
  {
    "compound": "NC1=NC(=O)C(c2ccccc2)O1 (configuration not stated)",
    "assayEndpoint": "TBIL",
    "valueReported": 0.044
  }
]

Would you mind giving TBIL for every compound in the list below?
1. CCOc1ccc(NC(C)=O)cc1
2. Cc1nnc2n1-c1ccc(Cl)cc1C(c1ccccc1Cl)=NC2
3. CN/C(=N/CCSCc1nc[nH]c1C)NC#N
4. CN1C(=O)CCS(=O)(=O)C1c1ccc(Cl)cc1 (configuration not stated)

1: 0.05; 2: 0.062; 3: 0.1; 4: 0.044

---

organism: Rattus norvegicus; assay: Open TG-GATES - Regimen: Single; type: toxicity, organism-based, Sprague-Dawley; parameters: regimen Single, gender Male, age 6 weeks; conditions: in vivo, po, 1000 mg/kg, 3 h, tissue Plasma, route gavage, dose level High
assayEndpoint: TP (g/dL)
Numbers only, in g/dL.

Some solved entries appear below for comparison.
[
  {
    "chemicalSmiles": "Cc1nnc2n1-c1ccc(Cl)cc1C(c1ccccc1Cl)=NC2",
    "TP (g/dL)": 5.2
  },
  {
    "chemicalSmiles": "O=C(OC[C@H]1O[C@@H](OC(=O)c2cc(O)c(O)c(OC(=O)c3cc(O)c(O)c(O)c3)c2)[C@H](OC(=O)c2cc(O)c(O)c(OC(=O)c3cc(O)c(O)c(O)c3)c2)[C@@H](OC(=O)c2cc(O)c(O)c(OC(=O)c3cc(O)c(O)c(O)c3)c2)[C@@H]1OC(=O)c1cc(O)c(O)c(OC(=O)c2cc(O)c(O)c(O)c2)c1)c1cc(O)c(O)c(OC(=O)c2cc(O)c(O)c(O)c2)c1",
    "TP (g/dL)": 5.5
  },
  {
    "chemicalSmiles": "CN/C(=N/CCSCc1nc[nH]c1C)NC#N",
    "TP (g/dL)": 5.3
  },
  {
    "chemicalSmiles": "CNC(=C[N+](=O)[O-])NCCSCc1ccc(CN(C)C)o1",
    "TP (g/dL)": 5.3
  }
]

Next item in the queue.
May I ask what TP has been recorded for "COC(=O)C1=C(C)NC(C)=C(C(=O)OC)C1c1ccccc1[N+](=O)[O-]" ?
5.2

---

organism: Rattus norvegicus; assay: Open TG-GATES - Regimen: Single; format: toxicity, organism-based, Sprague-Dawley; design: regimen Single, gender Male, age 6 weeks; details: in vivo, po, 100 mg/kg, 3 h, tissue Plasma, route gavage, dose level Low
assayEndpoint: Ca (mg/dL)
Give bare numbers, in mg/dL.

[
  {
    "compound": "Cc1nnc2n1-c1ccc(Cl)cc1C(c1ccccc1Cl)=NC2 [TRIAZOLAM]",
    "unitLabel": "mg/dL",
    "Ca": 11
  }
]

// returns reported Ca for input O=C(OC[C@H]1O[C@@H](OC(=O)c2cc(O)c(O)c(OC(=O)c3cc(O)c(O)c(O)c3)c2)[C@H](OC(=O)c2cc(O)c(O)c(OC(=O)c3cc(O)c(O)c(O)c3)c2)[C@@H](OC(=O)c2cc(O)c(O)c(OC(=O)c3cc(O)c(O)c(O)c3)c2)[C@@H]1OC(=O)c1cc(O)c(O)c(OC(=O)c2cc(O)c(O)c(O)c2)c1)c1cc(O)c(O)c(OC(=O)c2cc(O)c(O)c(O)c2)c1 [TANNIC ACID]
10.9

---

species: Rattus norvegicus; assay: Open TG-GATES - Regimen: Daily Repeat; type: toxicity, organism-based, Sprague-Dawley; design: regimen Daily Repeat, gender Male, age 6 weeks; conditions: in vivo, po, 0 mg/kg, […], tissue Blood, route gavage, dose level Control, time 28 day
Task for the reader: assign each of the following molecules its reported Ht.
Give bare numbers, in %.

Consider the following illustrative entries.
[
  {
    "molecule": "O=C(OC[C@H]1O[C@@H](OC(=O)c2cc(O)c(O)c(OC(=O)c3cc(O)c(O)c(O)c3)c2)[C@H](OC(=O)c2cc(O)c(O)c(OC(=O)c3cc(O)c(O)c(O)c3)c2)[C@@H](OC(=O)c2cc(O)c(O)c(OC(=O)c3cc(O)c(O)c(O)c3)c2)[C@@H]1OC(=O)c1cc(O)c(O)c(OC(=O)c2cc(O)c(O)c(O)c2)c1)c1cc(O)c(O)c(OC(=O)c2cc(O)c(O)c(O)c2)c1 [TANNIC ACID]",
    "Ht, %": 43.6
  },
  {
    "molecule": "CC(C)NNC(=O)c1ccncc1 [IPRONIAZID]",
    "Ht, %": 40.9
  },
  {
    "molecule": "CN/C(=N/CCSCc1nc[nH]c1C)NC#N [CIMETIDINE]",
    "Ht, %": 44.2
  },
  {
    "molecule": "Nc1c2c(nc3ccccc13)CCCC2 [TACRINE]",
    "Ht, %": 41.5
  },
  {
    "molecule": "NC1=NC(=O)C(c2ccccc2)O1 (stereo not drawn) [PEMOLINE]",
    "Ht, %": 42.3
  }
]

# per-item lookup of Ht; items listed below
1. Cc1nnc2n1-c1ccc(Cl)cc1C(c1ccccc1Cl)=NC2 [TRIAZOLAM]
2. CCOc1ccc(NC(C)=O)cc1 [PHENACETIN]
3. CCCc1cc(=O)[nH]c(=S)[nH]1 [PROPYLTHIOURACIL]

1. 45.3
2. 43.5
3. 45.9

---

species on record: Rattus norvegicus; test: Open TG-GATES - Regimen: Daily Repeat; assay type: toxicity, organism-based, Sprague-Dawley; set-up: regimen Daily Repeat, gender Male, age 6 weeks; details: in vivo, po, 100 mg/kg, 72 h, tissue Blood, route gavage, dose level Low, time 3 day
Please respond with reported Fbg for every item in the list.
One number for each entry, in mg/dL.

Some solved cases for reference:
[
  {
    "chemicalSmiles": "Cc1nnc2n1-c1ccc(Cl)cc1C(c1ccccc1Cl)=NC2",
    "Fbg [mg/dL]": 274.2
  },
  {
    "chemicalSmiles": "COC(=O)C1=C(C)NC(C)=C(C(=O)OC)C1c1ccccc1[N+](=O)[O-]",
    "Fbg [mg/dL]": 281.6
  },
  {
    "chemicalSmiles": "CN/C(=N/CCSCc1nc[nH]c1C)NC#N",
    "Fbg [mg/dL]": 220
  },
  {
    "chemicalSmiles": "O=C(OC[C@H]1O[C@@H](OC(=O)c2cc(O)c(O)c(OC(=O)c3cc(O)c(O)c(O)c3)c2)[C@H](OC(=O)c2cc(O)c(O)c(OC(=O)c3cc(O)c(O)c(O)c3)c2)[C@@H](OC(=O)c2cc(O)c(O)c(OC(=O)c3cc(O)c(O)c(O)c3)c2)[C@@H]1OC(=O)c1cc(O)c(O)c(OC(=O)c2cc(O)c(O)c(O)c2)c1)c1cc(O)c(O)c(OC(=O)c2cc(O)c(O)c(O)c2)c1",
    "Fbg [mg/dL]": 234.4
  },
  {
    "chemicalSmiles": "CCOc1ccc(NC(C)=O)cc1",
    "Fbg [mg/dL]": 290.4
  }
]

Proceed to the following item.
Quick one: Fbg of "CNC(=C[N+](=O)[O-])NCCSCc1ccc(CN(C)C)o1" ?
221.4
